Target: Cycloeucalenol cycloisomerase (Zea mays)
Sequence (B6TK44 whole entry): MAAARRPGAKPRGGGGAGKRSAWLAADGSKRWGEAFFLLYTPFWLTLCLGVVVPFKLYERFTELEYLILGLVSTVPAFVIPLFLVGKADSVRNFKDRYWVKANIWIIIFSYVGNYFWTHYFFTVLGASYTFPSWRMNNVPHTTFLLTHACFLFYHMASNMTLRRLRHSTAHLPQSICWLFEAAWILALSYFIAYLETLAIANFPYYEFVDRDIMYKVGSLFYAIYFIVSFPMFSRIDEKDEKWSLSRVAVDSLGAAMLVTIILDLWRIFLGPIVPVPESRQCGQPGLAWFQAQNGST
readout: pIC50
pIC50 is a log-scale quantity: -log10 of the concentration expressed in molar.

Check the records and state pIC50 for CCCCCCCCCCCCN1CC[C@H]2[C@H](C)[C@@H](O)CC[C@]2(C)C1
7.00

Check the records and state pIC50 for CCCCCCCCCCCCCN1CC(C)OC(C)C1 (stereo not drawn)
6.40

Check the records and state pIC50 for CC(C)CCCC(C)CCCC(C)N1CC[C@H]2[C@H](C)[C@@H](O)CC[C@]2(C)C1 (stereo partly drawn)
7.60

Check the records and state pIC50 for CC(Cc1ccc(C(C)(C)C)cc1)CN1C[C@@H](C)O[C@@H](C)C1 (stereo partly drawn)
6.40

Check the records and state pIC50 for CC(Cc1ccc(C(C)(C)C)cc1)CN1CC[C@H]2[C@H](C)[C@@H](O)CC[C@]2(C)C1 (stereo partly drawn)
7.00

Check the records and state pIC50 for C[C@@H]1[C@@H](O)CC[C@]2(C)CN(Cc3ccccc3)CC[C@@H]12
7.00

Check the records and state pIC50 for C[C@@H]1[C@@H](O)CC[C@]2(C)CNCC[C@@H]12
4.76

Check the records and state pIC50 for CC(Cc1ccc(C(C)(C)C)cc1)CN1CCCCC1 (stereo not drawn)
6.70
